Record form. Attribute: IC50. Fill in for each entry.
- Target Or Test System: human IDO1 (Homo sapiens, UniProt P14902)
- Experiment Description: IDO inhibition assay in human IDO1/HEK293 cells
- Condition Notes: HEK293 cells stably expressing human IDO1, 20 hours incubation, absorbance at 490 nm; read-out: IDO1 HEK Human IC50

A selection of reference data follows.
COc1ccc(CN(C(=O)NC2CCCC2)[C@H]2CC[C@H](c3ccccc3)CC2)cc1 [Example 14]
120 nM
CC1(CC(=O)N[C@@]23C[C@@H]4C[C@@H](C[C@@](O)(C4)C2)C3)CCN(c2ccnc3ccc(F)cc23)CC1 [Example 17]
390 nM
COc1ccc(CN(C(=O)NC2CC2)[C@H]2CC[C@H](c3ccccc3)CC2)cc1 [Example 15]
240 nM
CCCC(C(=O)NC12CC3CC(CC(C3)C1)C2)N1CCN(c2ccnc3ccc(F)cc23)CC1 (single isomer, unassigned) [Example 20]
1900 nM

Exam item: Reported IC50, molecule C[C@@H](NC(=O)[C@H]1CC[C@H](O)CC1)[C@H]1CC[C@@H](c2ccnc3ccc(F)cc32)CC1 [Example 12] : ____
Marked response: 170 nM

----------
Record form. Attribute: pIC50. Fill in for each entry.
- Target Or Test System: Indoleamine 2,3-Dioxygenase (IDO) (Homo sapiens)
- Construct: endogenous in cells
- Sequence (P14902 whole entry): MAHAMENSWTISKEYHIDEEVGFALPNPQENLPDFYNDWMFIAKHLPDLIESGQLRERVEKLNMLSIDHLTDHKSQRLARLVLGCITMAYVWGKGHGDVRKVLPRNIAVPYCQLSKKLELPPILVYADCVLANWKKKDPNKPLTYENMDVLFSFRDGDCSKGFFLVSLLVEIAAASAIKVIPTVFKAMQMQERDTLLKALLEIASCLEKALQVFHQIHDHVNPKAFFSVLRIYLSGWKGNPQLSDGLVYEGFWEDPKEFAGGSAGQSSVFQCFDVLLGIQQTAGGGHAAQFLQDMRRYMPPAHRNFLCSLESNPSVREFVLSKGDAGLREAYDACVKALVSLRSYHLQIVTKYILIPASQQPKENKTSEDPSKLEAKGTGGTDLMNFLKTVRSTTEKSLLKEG
- Experiment Description: HeLa cell-based indoleamine 2,3-dioxygenase (IDO) assay (kynurenine production)
- Condition Notes: HeLa cells, IFNγ 25 ng/mL, 48 hour incubation, kynurenine absorbance at 480 nm
Numbers only, as −log10 of the molar value.

A selection of reference data follows.
C[C@@H](NC(=O)C1CCN(c2ccc(F)cc2)CC1)[C@H]1CC[C@@H](c2ccnc3ccc(F)cc32)CC1
7.66
C[C@@H](NC(=O)C12CCC(Cl)(CC1)CC2)[C@H]1CC[C@@H](c2ccnc3ccc(F)cc32)CC1
7.62
C[C@@H](NC(=O)N1CCN(c2ccccc2)CC1)[C@H]1CC[C@@H](c2ccnc3ccc(F)cc32)CC1
7.74

Hi there! I need pIC50 for each item below, if you can.
1. C[C@@H](NC(=O)C1CCCCC1)[C@H]1CC[C@@H](c2ccnc3ccc(F)cc32)CC1
2. CC1(CC(=O)NC23CC4CC(CC(C4)C2)C3)CCN(c2ccnc3ccc(F)cc23)CC1

Marked response:
[7.96, 7.51]

Hi there! I need pIC50 for each item below, if you can.
1. C[C@@H](C(=O)NC12CC3CC(C)(CC(C)(C3)C1)C2)[C@H]1CC[C@@H](c2ccnc3ccc(F)cc32)CC1
2. COc1ccc(CN(C(=O)NC2CCCCC2)[C@H]2CC[C@H](c3ccccc3)CC2)cc1
3. CCC(C(=O)NC1[C@H]2C[C@@H]3C[C@@H](C[C@H]1C3)C2)C1CCN(Cc2cccc(C(F)(F)F)n2)CC1 (single isomer, unassigned) [Example 22]
4. C[C@@H](NC(=O)C1CC(F)(F)C1)[C@H]1CC[C@@H](c2ccnc3ccc(F)cc32)CC1

Marked response:
[7.85, 7.18, 6.00, 6.26]

Exam item: Reported pIC50, compound CCC(C(=O)NC1[C@H]2C[C@@H]3C[C@@H](C[C@H]1C3)C2)C1CCN(Cc2cccc(C(F)(F)F)n2)CC1 (single isomer, unassigned) [Example 21] : ____
Marked response: 7.70

----------
- Target Or Test System: human IDO1 (Homo sapiens, UniProt P14902)
- Experiment Description: IDO inhibition assay in human IDO1/HEK293 cells
- Condition Notes: HEK293 cells stably expressing human IDO1, 20 hours incubation, absorbance at 490 nm; read-out: IDO1 HEK Human IC50
Observable: IC50 (nM)
Give bare numbers, in nM.

C[C@@H](NC(=O)C1CCC1)[C@H]1CC[C@@H](c2ccnc3ccc(F)cc32)CC1 [Example 10]
190

Hi there! I need IC50 for each item below, if you can.
1. C[C@@H](NC(=O)C1CC1)[C@H]1CC[C@@H](c2ccnc3ccc(F)cc32)CC1 [Example 6]
2. CC1(CC(=O)NC23CC4CC(CC(C4)C2)C3)CCN(c2ccnc(C(F)(F)F)c2)CC1 [Example 18]
3. C[C@@H](NC(=O)[C@H]1C[C@@H](F)C1)[C@H]1CC[C@@H](c2ccnc3ccc(F)cc32)CC1 [Example 9]
4. COc1ccc(N2CCC(C(=O)N[C@H](C)[C@H]3CC[C@@H](c4ccnc5ccc(F)cc54)CC3)CC2)cc1 [Example 3]
5. CCCC(C(=O)NC12CC3CC(CC(C3)C1)C2)N1CCN(c2ccnc3ccc(F)cc23)CC1 (single isomer, unassigned) [Example 19]
6. C[C@@H](NC(=O)C1CC(F)C1)C1CCC(c2ccnc3ccc(F)cc23)CC1 (some centres unmarked) [Example 8]

Marked response:
810
180
620
800
1800
570

Exam item: Reported IC50, compound C[C@H](NC(=O)C1CCC(O)CC1)C1CCC(c2ccnc3ccc(F)cc23)CC1 (some centres unmarked) [Example 11] : ____
Marked response: 750
